Taken from ChEMBL document CHEMBL5236651.

Catalogue of MIC values
Tested on: Staphylococcus aureus
Assay text: Antibacterial activity against methicillin-sensitive Staphylococcus aureus ATCC 29213 assessed as inhibition of bacterial growth by CLSI based micro broth double dilution method
Type: functional
Return type: number; implicit unit µg/mL.

| Substance smiles | Target or system | MIC (µg/mL) |
| --- | --- | --- |
| CC[C@H]1OC(=O)[C@@](C)(F)C(=O)[C@H](C)[C@@H](O[C@@H]2O[C@H](C)C[C@H](N(C)C)[C@H]2O)[C@@](C)(OC)C[C@@H](C)C(=O)[C@H](C)[C@H]2N(CCCN(C(=O)/C=C/c3ccccc3)c3ccnc4ccccc34)C(=O)O[C@]12C | Staphylococcus aureus | 1 |

From here, focus on the item given below.
Could you tell me which MIC is on file for CC[C@H]1OC(=O)[C@@](C)(F)C(=O)[C@H](C)[C@@H](O[C@@H]2O[C@H](C)C[C@H](N(C)C)[C@H]2O)[C@@](C)(OC)C[C@@H](C)C(=O)[C@H](C)[C@H]2N(CCCN(Cc3ccccc3)c3ccnc4ccccc34)C(=O)O[C@]12C ? 1
